Target: UniProt:P42226
Sequence (P42226 1-847): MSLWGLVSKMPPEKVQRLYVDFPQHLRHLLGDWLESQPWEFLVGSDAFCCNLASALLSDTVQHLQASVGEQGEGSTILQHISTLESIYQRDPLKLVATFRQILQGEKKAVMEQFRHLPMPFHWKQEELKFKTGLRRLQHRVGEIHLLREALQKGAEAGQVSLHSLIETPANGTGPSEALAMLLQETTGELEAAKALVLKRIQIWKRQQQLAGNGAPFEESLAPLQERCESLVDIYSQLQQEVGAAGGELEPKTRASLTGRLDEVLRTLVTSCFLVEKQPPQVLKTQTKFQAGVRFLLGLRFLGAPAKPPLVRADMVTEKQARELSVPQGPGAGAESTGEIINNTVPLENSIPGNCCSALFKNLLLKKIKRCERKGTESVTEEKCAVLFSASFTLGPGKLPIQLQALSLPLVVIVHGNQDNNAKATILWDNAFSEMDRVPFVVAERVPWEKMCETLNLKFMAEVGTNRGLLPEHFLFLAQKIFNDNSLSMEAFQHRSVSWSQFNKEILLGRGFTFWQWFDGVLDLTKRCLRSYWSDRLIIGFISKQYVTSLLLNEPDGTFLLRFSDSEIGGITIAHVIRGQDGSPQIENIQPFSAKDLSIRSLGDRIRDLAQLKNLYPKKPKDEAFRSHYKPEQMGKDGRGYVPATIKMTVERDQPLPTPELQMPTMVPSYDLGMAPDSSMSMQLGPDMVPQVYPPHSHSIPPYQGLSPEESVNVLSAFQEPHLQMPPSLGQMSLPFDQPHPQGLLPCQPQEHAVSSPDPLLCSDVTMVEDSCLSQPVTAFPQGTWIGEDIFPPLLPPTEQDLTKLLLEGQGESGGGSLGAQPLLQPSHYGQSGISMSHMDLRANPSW
Test: Fluorescence polarization (FP) binding assay, STAT6
Settings: FP competition, 5 nM fluorescein-labeled tracer, 200 nM protein, PBS pH7.4; read-out: Binding STAT6
Please go through the items and note down their Ki.

State recorded Ki for all listed compounds.
1. CC(C)(C)[C@H](NC(=O)c1cc2cc(C(F)(F)P(=O)(O)O)ccc2s1)C(=O)N1Cc2ccccc2[C@H]1C(=O)N1CCC[C@H](c2ccccc2)C1 [Compound 196]
2. CC(C)(C)c1ccc(C[C@H](NC(=O)c2cc3cc(C(F)(F)P(=O)(O)O)ccc3s2)C(=O)N2CCC[C@H]2C(=O)N2CCO[C@H](c3ccccc3)C2)cc1 [Compound 277]
3. CCCCC(=O)N1CC[C@H]2CN(C(=O)[C@@H]3CCCN3C(=O)[C@@H](NC(=O)c3cc4cc(C(F)(F)P(=O)(O)O)ccc4s3)C(C)(C)C)C[C@H]21 [Compound 96]
4. CC(C)CCN1CCC(C[C@H](NC(=O)c2cc3cc(C(F)(F)P(=O)(O)O)ccc3s2)C(=O)N2CCC[C@H]2C(=O)N2CCO[C@H](c3ccccc3)C2)CC1 [Compound 293]

OUTPUT:
1. < 100 nM
2. < 100 nM
3. > 10000 nM
4. 100 to 1000 nM

----------
Molecular target: UniProt P42226
Sequence (P42226 1-847): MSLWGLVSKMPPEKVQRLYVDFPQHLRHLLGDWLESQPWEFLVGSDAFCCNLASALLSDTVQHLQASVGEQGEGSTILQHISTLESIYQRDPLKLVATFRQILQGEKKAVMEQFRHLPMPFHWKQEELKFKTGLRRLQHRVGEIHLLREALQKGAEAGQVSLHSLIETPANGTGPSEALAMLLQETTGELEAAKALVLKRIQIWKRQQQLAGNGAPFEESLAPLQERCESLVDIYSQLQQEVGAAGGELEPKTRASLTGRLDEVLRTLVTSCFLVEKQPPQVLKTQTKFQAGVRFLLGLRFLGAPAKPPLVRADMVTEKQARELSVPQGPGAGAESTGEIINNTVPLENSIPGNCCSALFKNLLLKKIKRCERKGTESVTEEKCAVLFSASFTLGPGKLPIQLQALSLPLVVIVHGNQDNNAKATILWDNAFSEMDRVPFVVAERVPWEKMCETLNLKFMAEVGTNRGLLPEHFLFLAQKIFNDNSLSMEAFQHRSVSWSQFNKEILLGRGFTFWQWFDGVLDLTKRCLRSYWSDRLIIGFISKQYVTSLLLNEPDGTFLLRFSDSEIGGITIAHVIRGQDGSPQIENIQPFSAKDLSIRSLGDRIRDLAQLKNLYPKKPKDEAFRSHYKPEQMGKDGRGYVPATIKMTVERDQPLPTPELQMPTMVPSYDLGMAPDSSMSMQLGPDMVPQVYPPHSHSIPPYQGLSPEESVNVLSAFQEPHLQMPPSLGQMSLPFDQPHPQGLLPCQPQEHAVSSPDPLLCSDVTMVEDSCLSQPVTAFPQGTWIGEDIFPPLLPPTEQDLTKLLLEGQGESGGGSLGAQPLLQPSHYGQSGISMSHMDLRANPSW
Assay: Fluorescence polarization (FP) binding assay, STAT6
Conditions: FP competition, 5 nM fluorescein-labeled tracer, 200 nM protein, PBS pH7.4; read-out: Binding STAT6
Quantity Name: Ki

Solved entries (count: 4):
[
  {
    "Compound": "CN(C)C(=O)CCN(C(=O)[C@@H]1CCCN1C(=O)[C@@H](NC(=O)c1cc2cc(C(F)(F)P(=O)(O)O)ccc2s1)C(C)(C)C)c1cccc(-c2nccs2)c1 [Compound 320]",
    "Ki": "1 to 10 µM"
  },
  {
    "Compound": "CC(=O)N1CC[C@H]2CC[C@@H](C(=O)N3CCOC(c4ccc(F)cc4)C3)N2C(=O)[C@@H](NC(=O)c2cc3cc(C(F)(F)P(=O)(O)O)ccc3s2)C1 (some centres unmarked) [Compound 161]",
    "Ki": "0.1 to 1 µM"
  },
  {
    "Compound": "CC(=O)N1CC[C@H]2CC[C@@H](C(=O)NC(c3ccccc3)c3ccccc3)N2C(=O)[C@@H](NC(=O)c2cc3cc(C(F)(F)P(=O)(O)O)ccc3[nH]2)C1 [Compound 3]",
    "Ki": "1 to 10 µM"
  },
  {
    "Compound": "CC(C)(C)[C@H](NC(=O)c1cc2cc(C(F)(F)P(=O)(O)O)ccc2s1)C(=O)N1CCC[C@H]1C(=O)N1CC[C@H]2CCN(C(=O)c3ccc(F)cc3)[C@H]2C1 [Compound 83]",
    "Ki": "> 10 µM"
  }
]

API: the following record is the query input.
INPUT: If you can, please state the reported Ki value of CC(=O)N1CCN(C(=O)[C@@H](NC(=O)c2cc3cc(C(F)(F)P(=O)(O)O)ccc3s2)C(C)(C)C)[C@H](C(=O)N2CCO[C@H](c3ccccc3)C2)C1 [Compound 170] .
OUTPUT: 0.1 to 1 µM
